# measured-target: Fuc(a1-2)Gal(b1-3)GlcNAc(b1-2)Man(a1-3)[Fuc(a1-2)Gal(b1-3)GlcNAc(b1-2)Man(a1-6)]Man(b1-4)GlcNAc(b1-4)[Fuc(a1-6)]GlcNAc
# method-notes: glycan array binding signal (z-score within array); higher = stronger binding
# test-context: glycan notation: IUPAC condensed, linker removed
Many of the other results were omitted from the sample, so the strongest signals are more common in it than they were.
endpoint-label: glycan array binding signal (z-score)
Answers are plain numbers.

>  <binder>
SP16665A-bot-344-23-344 (Bacteroides ovatus) (protein) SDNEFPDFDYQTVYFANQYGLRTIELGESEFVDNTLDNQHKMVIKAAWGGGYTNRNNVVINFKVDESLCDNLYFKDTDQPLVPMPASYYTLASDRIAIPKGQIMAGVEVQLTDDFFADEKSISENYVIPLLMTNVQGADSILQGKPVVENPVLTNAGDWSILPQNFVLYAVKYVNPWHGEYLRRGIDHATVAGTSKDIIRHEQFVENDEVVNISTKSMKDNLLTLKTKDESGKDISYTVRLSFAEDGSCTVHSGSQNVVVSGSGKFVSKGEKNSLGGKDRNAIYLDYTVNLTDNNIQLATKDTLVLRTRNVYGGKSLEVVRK

>  <glycan array binding signal (z-score)>
0.285

$$$$
>  <binder>
BTL (Bryothamnion triquetrum) (protein) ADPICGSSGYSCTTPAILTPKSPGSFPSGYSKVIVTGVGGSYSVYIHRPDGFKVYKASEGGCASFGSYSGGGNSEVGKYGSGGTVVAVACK

>  <glycan array binding signal (z-score)>
2.75

$$$$

Here is another binder to look at.
QUERY: Can you look up the measured glycan array binding signal (z-score) of Lb MiSSP8 (Laccaria bicolor) (protein) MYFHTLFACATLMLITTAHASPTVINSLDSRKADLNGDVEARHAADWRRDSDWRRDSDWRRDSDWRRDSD for me?
RESULT: 1.26
